Data provenance is the NIST ThermoML archive (doi:10.1016/j.fluid.2016.04.009).

settings: 303.15 K; 101.33 kPa; Liquid; Vibrating tube method
Collected mass density values appear next to each entry.
Report only the number, with the unit kg/m3 understood.

Please review the following examples before continuing.
{"substanceSmiles": "CCCC[n+]1cccc(C)c1.O=S(=O)([N-]S(=O)(=O)C(F)(F)F)C(F)(F)F", "mass density / kg/m3": 1409.4}
{"substanceSmiles": "CC(C)C[N+]1(C)CCCCC1.O=S(=O)([N-]S(=O)(=O)C(F)(F)F)C(F)(F)F", "mass density / kg/m3": 1392.9}
{"substanceSmiles": "Cc1ccc[n+](CC(C)C)c1.O=S(=O)([N-]S(=O)(=O)C(F)(F)F)C(F)(F)F", "mass density / kg/m3": 1408}
{"substanceSmiles": "CC(C)Cn1cc[n+](C)c1.O=S(=O)([N-]S(=O)(=O)C(F)(F)F)C(F)(F)F", "mass density / kg/m3": 1432.4}
{"substanceSmiles": "CCCC[N+]1(C)CCCC1.O=S(=O)([N-]S(=O)(=O)C(F)(F)F)C(F)(F)F", "mass density / kg/m3": 1397.2}
{"substanceSmiles": "CCCC[N+]1(C)CCCCC1.O=S(=O)([N-]S(=O)(=O)C(F)(F)F)C(F)(F)F", "mass density / kg/m3": 1378.1}

Lookup: Indicate its recorded mass density; the compound in question is CC(C)C[N+]1(C)CCCC1.O=S(=O)([N-]S(=O)(=O)C(F)(F)F)C(F)(F)F
Found: 1395.6
